- assay-target: rat NR1/NR2B receptor (Rattus norvegicus (Rat), UniProt P35439+Q00960)
- Sequence (Q00960 27-1482, other chains not shown): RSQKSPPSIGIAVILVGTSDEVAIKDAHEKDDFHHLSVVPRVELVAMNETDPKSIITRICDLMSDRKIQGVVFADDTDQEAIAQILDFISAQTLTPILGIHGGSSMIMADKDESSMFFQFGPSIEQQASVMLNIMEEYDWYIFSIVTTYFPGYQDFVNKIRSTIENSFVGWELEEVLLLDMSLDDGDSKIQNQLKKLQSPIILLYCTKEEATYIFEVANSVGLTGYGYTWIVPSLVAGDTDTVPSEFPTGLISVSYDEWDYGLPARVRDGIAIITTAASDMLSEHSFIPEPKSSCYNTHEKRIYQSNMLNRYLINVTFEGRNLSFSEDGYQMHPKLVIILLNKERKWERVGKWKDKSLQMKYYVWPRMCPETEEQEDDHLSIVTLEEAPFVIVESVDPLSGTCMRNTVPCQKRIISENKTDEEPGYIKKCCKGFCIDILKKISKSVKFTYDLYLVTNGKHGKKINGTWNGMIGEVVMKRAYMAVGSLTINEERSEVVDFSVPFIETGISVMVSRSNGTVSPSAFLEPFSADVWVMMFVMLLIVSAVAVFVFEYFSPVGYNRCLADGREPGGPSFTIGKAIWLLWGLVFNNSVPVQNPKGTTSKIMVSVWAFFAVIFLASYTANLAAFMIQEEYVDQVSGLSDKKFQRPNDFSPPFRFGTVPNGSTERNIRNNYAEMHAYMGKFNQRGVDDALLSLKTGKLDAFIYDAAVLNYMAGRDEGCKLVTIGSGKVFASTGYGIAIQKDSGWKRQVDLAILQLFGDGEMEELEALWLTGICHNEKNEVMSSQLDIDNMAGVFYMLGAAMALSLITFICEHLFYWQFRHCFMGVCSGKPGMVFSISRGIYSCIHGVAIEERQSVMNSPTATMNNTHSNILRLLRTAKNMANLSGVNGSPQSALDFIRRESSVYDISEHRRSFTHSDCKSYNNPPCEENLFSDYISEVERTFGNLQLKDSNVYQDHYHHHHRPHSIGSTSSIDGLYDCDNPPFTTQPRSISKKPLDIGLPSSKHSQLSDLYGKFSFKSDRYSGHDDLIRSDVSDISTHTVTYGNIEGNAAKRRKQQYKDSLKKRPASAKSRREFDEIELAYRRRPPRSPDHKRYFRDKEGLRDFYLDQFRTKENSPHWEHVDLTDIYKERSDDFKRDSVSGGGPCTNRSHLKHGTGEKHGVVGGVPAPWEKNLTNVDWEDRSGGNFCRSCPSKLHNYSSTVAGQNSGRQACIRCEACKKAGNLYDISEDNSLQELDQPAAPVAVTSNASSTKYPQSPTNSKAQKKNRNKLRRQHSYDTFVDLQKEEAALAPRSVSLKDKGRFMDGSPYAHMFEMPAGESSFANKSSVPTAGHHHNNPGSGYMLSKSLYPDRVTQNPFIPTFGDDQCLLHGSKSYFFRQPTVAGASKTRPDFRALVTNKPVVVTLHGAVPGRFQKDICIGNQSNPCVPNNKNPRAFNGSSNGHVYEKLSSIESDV
- assay-overview: RRNR2BB: inhibition of specific binding to the rat NR1/NR2B receptor
- condition-label: [3H]-Ifenprodil binding, rat brain membranes, Hill-plot 2-parameter-model
pIC50: −log10 of the molar value.
# if value of pIC50 reaches 8, tag 1 (yes); if it stays below, tag 0 (no)

INSERT INTO assay_data (compound, answer_label) VALUES
  ('Cc1nc(C)n(Cc2cn(-c3ccccc3)nn2)n1 [Example 46]', '0 (no)'),
  ('Cc1nccn1Cc1cn(-c2ccc(Cl)c(F)c2)nn1 [Example 50]', '0 (no)'),
  ('Cc1nccn1Cc1cn(-c2ccc(F)c(OC(F)F)c2)nn1 [Example 100]', '1 (yes)'),
  ('Clc1ccc(-n2cc(Cn3ccnc3C3CC3)nn2)cc1Cl [Example 36]', '0 (no)'),
  ('FC(F)(F)c1cc(-n2cc(Cn3ccnc3C3CC3)nn2)ccc1Cl [Example 66]', '0 (no)'),
  ('Fc1ccc(-n2cc(Cn3ccnc3C3CC3)nn2)cc1Cl [Example 44]', '0 (no)'),
  ('Clc1ccc(-n2cc(Cn3cnc(C4CCCC4)n3)nn2)cc1 [Example 15]', '0 (no)'),
  ('COc1cc(F)ccc1-n1cc(Cn2ccnc2C2CC2)nn1 [Example 62]', '0 (no)'),
  ('CCc1nccn1Cc1cn(-c2ccc(Cl)c(OC(F)F)c2)nn1 [Example 96]', '1 (yes)');
